Assay: Toxicity against mouse P388 cells
Type: cell-based
Details: read-out: ED50 (the source's name)
metric.name: CC50

What value of CC50 has been reported for the following compound? Cc1c2ccncc2c(C)c2c1[nH]c1ccccc12
< 1 mg/L

* * *

Experiment: Toxicity against human SQC1 UISO cells
Format: cell-based
Conditions: read-out: ED50 (the source's name)
metric.name: CC50 (µg/mL)
Could you give me the number in µg/mL? Just the number is fine.

What value of CC50 has been reported for the following compound? Cc1c2ccncc2c(C)c2c1[nH]c1ccccc12
1.77

These data points were gathered from ChEMBL document CHEMBL1158079.
